System: K562
Test: NCI tumour cell line growth inhibition, 48 h
Active and inactive are the calls of the source. No stated cut-off is given here; in the data, active = GI50 up to about 1.1 µM and inactive = higher.
endpoint name: GI50

Some compounds with known GI50 results, for comparison:
{"compound": "CC1(C)NC(C)(C)/C(=N\\O)C(=NO)/C1=N/O", "GI50": "> 100 µM (inactive)"}
{"compound": "Cc1cc(C)n(-c2nc3ccccc3c(=O)n2-c2ccccc2)n1", "GI50": "> 100 µM (inactive)"}
{"compound": "CCCCCCCCCCCCOCCCOP(=O)([O-])OCC[N+](C)(C)C", "GI50": "48.8 µM (inactive)"}

Query string: Return reported GI50; argument: `O=C1c2ccccc2-c2nnc(-c3ccccc3)cc21`
Result string: 3.61 µM (inactive)

###

System: SNB-19
Assay: NCI tumour cell line growth inhibition, 48 h
Activity calls are given as the source filed them. Rule as the data show it: active = GI50 up to about 1.1 µM and inactive = higher.
Result category, one only: active, inactive

{"compound": "COc1ccc2c3c1O[C@H]1[C@@H](O)CC[C@@]4(O)[C@@H](C2)N(C)CC[C@]314", "tested on": "SNB-19", "label value": "inactive"}
{"compound": "O=[N+]([O-])C1C2C=CC(C2)[C@H]1c1ccc(Cl)cc1Cl (some centres not stated)", "tested on": "SNB-19", "label value": "inactive"}
{"compound": "CSc1ccc2c(cc1=O)[C@@H](NC(=O)c1cccc([N+](=O)[O-])c1)CCc1cc(O)c(O)c(O)c1-2", "tested on": "SNB-19", "label value": "inactive"}
{"compound": "CC1c2cc(c3c(c2O)CN([C@@H](C)C2CCCCC2)CO3)C(C)c2cc(c3c(c2O)CN([C@@H](C)C2CCCCC2)CO3)C(C)c2cc(c3c(c2O)CN([C@@H](C)C2CCCCC2)CO3)C(C)c2cc1c1c(c2O)CN([C@@H](C)C2CCCCC2)CO1 (some centres not stated)", "tested on": "SNB-19", "label value": "inactive"}
{"compound": "Clc1ccc(/C=N/C23CC4CC(CC(C4)C2)C3)c(Cl)c1", "tested on": "SNB-19", "label value": "inactive"}

Query string: Recorded test outcome, item `CO[C@H]1C[C@H](O[C@H]2CC[C@@]3(C)[C@H](CC[C@@H]4[C@@H]3CC[C@]3(C)[C@@H](C5=CC(=O)OC5)CC[C@]43O)C2)O[C@H](C)[C@H]1O`
Result string: active

Query string: Hey, what did the test say about CC(C)[C@H](CCl)NC(=O)c1cccc(C(=O)N[C@H](CCl)C(C)C)n1 (stereo in doubt) ?
Result string: inactive

###

Test system: OVCAR-4
Test: NCI tumour cell line growth inhibition, 48 h
Active and inactive are the calls of the source. Cut-off read from the data, not from the text of the source: active = GI50 up to about 1.1 µM and inactive = higher.
endpoint name: GI50

Sample records with GI50:
{"compound": "CCn1c(=O)c(C(=O)O)c(Cl)c2cc3c(cc21)OCO3", "GI50": "> 100 µM (inactive)"}
{"compound": "C/C(Cl)=N\\OC(=O)Nc1ccc(C)cc1", "GI50": "18.5 µM (inactive)"}
{"compound": "O=S(=O)(O)c1cc(/N=N/c2c(O)ccc3ccccc23)cc2c(S(=O)(=O)O)cccc12", "GI50": "> 100 µM (inactive)"}
{"compound": "Cc1cc2nc3c(C#N)c4c(c(Nc5ccc(Cl)cc5)n3c2cc1C)CCC4", "GI50": "32.5 µM (inactive)"}

// below: GI50 requested for another compound
Query string: Would you kindly share the measured GI50 for C=C[C@@](C)(/C=C/c1ccc(O)cc1)CCC=C(C)C [BAKUCHIOL] ?
Result string: 14 µM (inactive)

###

Tested on: KM-20L2
Test: NCI tumour cell line growth inhibition, 48 h
Calls of active or inactive are those of the source. Rule as the data show it: active = GI50 up to about 1.1 µM and inactive = higher.
endpoint name: GI50

These recorded examples may help you get a feel for the data.
{"compound": "COc1cc(C(=C2SCCS2)c2nccc3cc(OC)c(OC)cc23)c([N+](=O)[O-])cc1OC", "GI50": "51.1 µM (inactive)"}
{"compound": "Sc1ccccc1S", "GI50": "> 100 µM (inactive)"}

// switching to the query compound
Query string: KM-20L2 / GI50 / OCC1OC(n2cnc3c2NC=NC[C@H]3O)C(O)C1O (stereo partly drawn) : value?
Result string: 444 µM (inactive)

###

Tested on: MCF7
Experiment: NCI tumour cell line growth inhibition, 48 h
Calls of active or inactive are those of the source. Rule as the data show it: active = GI50 up to about 1.1 µM and inactive = higher.
The reply should be one of these categories: active, inactive

Query string: What classification did O=C1c2ccccc2-n2nnnc2C2CSCN12 (stereo unspecified) end up with in this test?
Result string: inactive

Query string: // outcome(item) with item = `OC[P+](CO)(CO)C12CC3CC(CC(C3)C1)C2`
Result string: inactive

Query string: I'd appreciate the recorded outcome for `C#C[C@]1(O)CC[C@H]2[C@@H]3CCC4=C/C(=N/OCCN(C)C)CC[C@]4(C)[C@H]3CC[C@@]21C` from this test.
Result string: inactive

Query string: Identify the outcome logged in this assay for the compound shown: `C/C(=N/NC(=S)Nc1ccc([N+](=O)[O-])cc1)c1cccc(/C(C)=N\NC(=S)Nc2ccc([N+](=O)[O-])cc2)n1`
Result string: active

Query string: Answer briefly: the call reported for `OCCN1c2ccccc2Sc2ccccc21` in this assay.
Result string: inactive

Query string: Hey, what did the test say about `Sc1ncnc2c1ncn2Cc1ccco1` ?
Result string: inactive

Query string: Which outcome was entered for the compound `CCN(CC)c1ccc(C(=C2C=CC(=[N+](CC)CC)C=C2)c2ccc(N(CC)CC)cc2)cc1` in this test?
Result string: active

Query string: Which result was noted for this compound in the test: `C=C1c2nc3ccccc3n2C=C(c2ccccc2)N1c1ccccc1`
Result string: inactive

Query string: Please share the test call associated with `CN(C)c1cccc(/C=C(\C#N)c2ccccc2)c1` .
Result string: active

Query string: GET /call?item= `O=C1O/C(=C/c2ccccc2)C(c2ccccc2)=C1O` returns the recorded outcome of this test.
Result string: inactive

Query string: Hey, what did the test say about `Cc1ccc2c(c1)C(=O)C1(C2)Cc2ccc(C)cc2C1=O` ?
Result string: inactive

Query string: Any idea what this test logged for NC(=O)NC(=O)C1CCCCC1C(=O)O (stereo unspecified) ?
Result string: inactive

Query string: What call does the record list for `O=[N+]([O-])c1ccc(Sc2c3ccccc3nc3ccccc23)cn1` ?
Result string: inactive

Query string: Hi, sorry to bother you, what did the test record for `COc1ccc2c3c1O[C@H]1[C@@H](O)CC[C@@]4(O)[C@@H](C2)N(C)CC[C@]314` ?
Result string: inactive

Query string: What outcome does the record of this test show for `COc1ccc(N(c2ccc(C#N)cc2)c2ccc(C#N)cc2)cc1` ?
Result string: inactive

Query string: Record lookup: outcome of this test for `N=C(N)NS(=O)(=O)c1ccc(NCc2c3ccccc3nc3ccccc23)cc1` ?
Result string: active

Query string: Check the results log: what was the call for `N#CC[C@@H](O)COc1ccccc1` ?
Result string: inactive

Query string: Could you kindly confirm the outcome this assay logged for CCCCCCCCCCCCCCCCCCNc1ccn(C2OC(COP(=O)(O)OCC3OC(n4ccc(N)nc4=O)C(O)C3O)C(O)C2O)c(=O)n1 (stereo unspecified) ?
Result string: inactive

Query string: Hello, I am checking results. What call was entered for `CC(=O)Oc1cc(/C=C/c2ccc(O)cc2)cc(OC(C)=O)c1` ?
Result string: inactive

Query string: Which outcome was entered for the compound `CCOC(=O)c1c(-c2cccc(Cl)c2)c(C(=O)OC)c(C)c2sc(C=O)nc12` in this test?
Result string: inactive

Query string: Hi, do you know how CCOC(=O)c1c(-c2ccc(OC)cc2)c(C#N)c(=S)n(C2OC(COC(C)=O)C(OC(C)=O)C(OC(C)=O)C2OC(C)=O)c1C (stereo unspecified) came out in this test?
Result string: inactive

###

Test system: COLO 205
Test: NCI tumour cell line growth inhibition, 48 h
Calls of active or inactive are those of the source. Rule as the data show it: active = GI50 up to about 1.1 µM and inactive = higher.
endpoint name: GI50

Query string: Field request: GI50 | item: CCOC(=O)C1(C#N)C(c2ccccc2)CC(O)(c2ccc(Cl)cc2)C(C(=O)c2ccc(Cl)cc2)C1c1ccccc1 (stereo unspecified)
Result string: > 100 µM (inactive)

###

Listed here are compounds together with their documented GI50.
Test system: HT-29
Assay: NCI tumour cell line growth inhibition, 48 h
Calls of active or inactive are those of the source. Cut-off read from the data, not from the text of the source: active = GI50 up to about 1.1 µM and inactive = higher.

Some compounds with known GI50 results, for comparison:
{"compound": "CC(C)[C@H](CCl)NC(=O)c1cccc(C(=O)N[C@H](CCl)C(C)C)n1 (stereo in doubt)", "GI50": "> 100 µM (inactive)"}
{"compound": "O=C1C(N2CCNCC2)=C(Cl)C(=O)c2ncccc21", "GI50": "> 10 µM (inactive)"}
{"compound": "C=C1c2nc3ccccc3n2C=C(c2ccc(OC)cc2)N1c1ccccc1", "GI50": "9.68 µM (inactive)"}
{"compound": "N#C/C(=C1/c2cc([N+](=O)[O-])ccc2-c2c1cc([N+](=O)[O-])cc2[N+](=O)[O-])N1CCCCC1", "GI50": "> 100 µM (inactive)"}
{"compound": "O=C(N/C(=C\\c1ccc(Br)cc1)c1nc2ccccc2[nH]1)c1ccccc1", "GI50": "18.1 µM (inactive)"}
{"compound": "COc1ccc(N2C(=O)[C@@H]3[C@H](C2=O)c2[nH]c4ccccc4c2C2CCC(C(C)(C)C)C[C@@H]23)cc1 (some centres not stated)", "GI50": "29.2 µM (inactive)"}

Query string: Need GI50, item CC(C)(CO)N1C(=O)c2ccccc2C1(O)c1ccc(Cl)cc1 (configuration not stated)
Result string: > 100 µM (inactive)

Query string: Return reported GI50; argument: `O=C1Nc2ccccc2C(=O)/C1=C/NC(=S)NCCc1ccccc1`
Result string: > 100 µM (inactive)

Query string: State the recorded GI50 for this entry: `CCCNC(=O)OCc1c(COC(=O)NCCC)c(-c2ccc(Cl)c(Cl)c2)n2c1CCC2`
Result string: 4.12 µM (inactive)

Query string: What value of GI50 has been recorded for this entry: `O=C(Cc1nc2ccccc2s1)C(=O)Nc1cccc(C(F)(F)F)c1`
Result string: > 100 µM (inactive)

Query string: Using the record for `OCCN1CCN(CCO)Cc2ccccc2OCCOc2ccccc2C1` , report its GI50.
Result string: 96.8 µM (inactive)

Query string: Tell me the measured GI50 of `NCC(=O)N[C@H]1c2ccsc2/C(=N/O)[C@H]1O` , please.
Result string: > 100 µM (inactive)
